Measured GI50 at 72 h, listed per entry for reference.
# PROCEDURE TEXT: Cytotoxicity against human HEK293 cells transfected with ABCG2 after 72 hrs by MTT assay
# Assay type: ADME, cell-based
# CONDITION CONTEXT: read-out: IG50
Answer with the number, then the unit.

COc1ccc2c3c([nH]c2c1)[C@H](CC(C)C)N1C(=O)[C@H](CCC(=O)OC(C)(C)C)NC(=O)[C@@H]1C3 = 18 µM
COc1ccc2[nH]cc(CCNC(=O)c3cc(=O)c4c(OCc5ccccc5)cccc4o3)c2c1 = 35 µM

As a next step, examine the compound that follows.
Record "COc1ccc(CCNC(=O)c2cc(=O)c3c(OCc4ccccc4)cccc3o2)cc1OC" . Reported GI50 at 72 h: 60 µM

Values were extracted from ChEMBL document CHEMBL2010704.
